Tested on: SpTbr T-box DNA-binding domain (GST fusion);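 note: protein at 200 nM in PBS on universal double-stranded arrays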
Sequence: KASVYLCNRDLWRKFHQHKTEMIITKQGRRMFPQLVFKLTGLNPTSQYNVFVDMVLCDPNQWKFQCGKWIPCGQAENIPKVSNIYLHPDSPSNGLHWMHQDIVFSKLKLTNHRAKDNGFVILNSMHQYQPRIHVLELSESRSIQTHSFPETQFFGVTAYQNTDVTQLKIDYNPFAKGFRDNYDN
experimental details: PBM E-score of 8-mer (E-score (dimensionless, -0.5 to 0.5)); Tbr is Tbrain of the sea star Patiria miniata (Pm) or the sea urchin Strongylocentrotus purpuratus (Sp); higher = stronger binding preference
measurement context: the construct has about 5 more residues each side
In all, about 33,000 sequences were measured (“E-score (dimensionless, -0.5 to 0.5)”: median about -0.046, highest 2% from about 0.36 on). The list comes from a sample in which the highest values are over-represented; it also holds close analogues and randomly drawn sequences.
Provide the reported PBM E-score of 8-mer of each item.
Quick one: just the number, no unit, thanks!

(Q) Identify measured PBM E-score of 8-mer corresponding to "ATGTGAAA"
(A) 0.263

(Q) Identify measured PBM E-score of 8-mer corresponding to "AGCCTATC"
(A) -0.168

(Q) Identify measured PBM E-score of 8-mer corresponding to "ATGTGAAC"
(A) 0.203

(Q) Identify measured PBM E-score of 8-mer corresponding to "CTGTGAAG"
(A) 0.296

(Q) Identify measured PBM E-score of 8-mer corresponding to "AGGCGTTG"
(A) 0.355

(Q) Identify measured PBM E-score of 8-mer corresponding to "GGATGGAC"
(A) -0.203

(Q) Identify measured PBM E-score of 8-mer corresponding to "AACCTCGG"
(A) -0.108

(Q) Identify measured PBM E-score of 8-mer corresponding to "GACCTCGA"
(A) -0.0589

(Q) Identify measured PBM E-score of 8-mer corresponding to "CTGTGAAA"
(A) 0.396

(Q) Identify measured PBM E-score of 8-mer corresponding to "ATCTTCAC"
(A) 0.267

(Q) Identify measured PBM E-score of 8-mer corresponding to "CACCTCGA"
(A) 0.445

(Q) Identify measured PBM E-score of 8-mer corresponding to "TTGTGAAA"
(A) 0.361

(Q) Identify measured PBM E-score of 8-mer corresponding to "GTTCATCA"
(A) 0.0211

(Q) Identify measured PBM E-score of 8-mer corresponding to "GGTTATCA"
(A) 0.0778

(Q) Identify measured PBM E-score of 8-mer corresponding to "GGGCGTTA"
(A) 0.27

(Q) Identify measured PBM E-score of 8-mer corresponding to "TGAGATAA"
(A) 0.0687

(Q) Identify measured PBM E-score of 8-mer corresponding to "CCAAATAA"
(A) -0.267

(Q) Identify measured PBM E-score of 8-mer corresponding to "CACAGCAG"
(A) -0.0256

(Q) Identify measured PBM E-score of 8-mer corresponding to "CTATCCTA"
(A) -0.171

(Q) Identify measured PBM E-score of 8-mer corresponding to "CCAGCTTC"
(A) -0.142

(Q) Identify measured PBM E-score of 8-mer corresponding to "AACCTCGC"
(A) 0.152

(Q) Identify measured PBM E-score of 8-mer corresponding to "GGGCGTAA"
(A) 0.131
